assay: Pharmacokinetics in male CD-1 mice (plasma and tissue, LC-MS/MS); details: CD-1, mouse, tissue (muscle or skin, not specified which), sc, 10 mg/kg
measured.parameter: AUC(0-t) (ng·h/mL)

1. O=C(CCCc1ccc(I)cc1)OCn1cc(F)c(=O)[nH]c1=O	37600

====

assay: Pharmacokinetics in male CD-1 mice (plasma and tissue, LC-MS/MS); details: CD-1, mouse, tissue (muscle or skin, not specified which), subcutaneous, 10 mg/kg
measured.parameter: half-life (h)

1. O=C(CCCc1ccc(I)cc1)OCn1cc(F)c(=O)[nH]c1=O	11.3

====

test: Pharmacokinetics in male CD-1 mice (plasma and tissue, LC-MS/MS); conditions: CD-1, mouse, in vivo, sc, 1 mg/kg
measured.parameter: half-life

1. CC(C)Cc1ccc([C@H](C)C(=O)NCCCC[N+]23CC(=O)O[B-]2([C@H](CC(C)C)NC(=O)[C@H](Cc2ccccc2)NC(=O)c2cnccn2)OC(=O)C3)cc1 (stereo partly shown)	93.2 h

====

experiment: physchem; settings: buffer, pH 7.4
measured.parameter: half-life (h)

1) CC(=O)O[C@@]12CO[C@@H]1C[C@H](O)[C@@]1(C)C(=O)[C@H](O)C3=C(C)[C@@H](OC(=O)[C@H](OC(=O)CCCc4ccc(I)cc4)[C@@H](NC(=O)OC(C)(C)C)c4ccccc4)C[C@@](O)([C@@H](OC(=O)c4ccccc4)[C@H]21)C3(C)C	13.4

====

system: A549; experiment: Cellular IC50 in A549 tumor cell line (CellTiter-Glo); assay type: cell-based; settings: Homo sapiens, A549 cells, 72 h incubation
pIC50: −log10 of the molar value.
Below, each entry is listed with its recorded pIC50.
measured.parameter: pIC50

1) CC(C)Cc1ccc([C@H](C)C(=O)NCCCC[N+]23CC(=O)O[B-]2([C@H](CC(C)C)NC(=O)[C@H](Cc2ccccc2)NC(=O)c2cnccn2)OC(=O)C3)cc1 (stereo partly drawn)	7.97
2) CCc1c2c(nc3ccc(OC(=O)[C@@H](C)c4ccc(CC(C)C)cc4)cc13)-c1cc3c(c(=O)n1C2)COC(=O)[C@]3(O)CC	6.68
3) CC(C)C[C@H](NC(=O)[C@H](Cc1ccccc1)NC(=O)c1cnccn1)B(O)O [Compound 9-7, Valcade, reference compound]	8.03

====

experiment: in vivo; details: male, CD-1, mouse, sc, 5 mg/kg
measured.parameter: AUC(0-t) (µg·h/mL)

1. CCc1c2c(nc3ccc(OC(=O)[C@@H](C)c4ccc(CC(C)C)cc4)cc13)-c1cc3c(c(=O)n1C2)COC(=O)[C@]3(O)CC	11800
